The reader will find reported relative cell viability values listed item by item below.
- Test system: MDA-MB-231;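 further: viability read by CCK-8 kit in 96-well plates, part of a combination screen pairing lipid-metabolism-targeting compounds with erastin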
- Protocol Notes: relative cell viability, compound + erastin, vs DMSO (fraction of DMSO control); higher = less growth inhibition
- Test Parameters: 72 h
Answer as a number with no unit attached.

Example cases with answers are listed next.
# input molecule: O=c1c(-c2ccc(O)cc2)coc2cc(O)ccc12 [Daidzein] + CCOc1ccccc1-n1c(C(C)N2CCN(C(=O)COc3ccc(Cl)cc3)CC2)nc2ccccc2c1=O ; wanted: its relative cell viability
0.619

Field request: relative cell viability | item: COc1cccc(-n2c(=O)[nH]c3cc(Cl)n(-c4ccc(-c5cccc(OC)c5O)cc4)c3c2=O)c1 + CCOc1ccccc1-n1c(C(C)N2CCN(C(=O)COc3ccc(Cl)cc3)CC2)nc2ccccc2c1=O
0.852

If you can, please state the reported relative cell viability value of CC(C)(Oc1ccc(C(=O)c2ccc(Cl)cc2)cc1)C(=O)O [Fenofibric acid] + CCOc1ccccc1-n1c(C(C)N2CCN(C(=O)COc3ccc(Cl)cc3)CC2)nc2ccccc2c1=O .
0.915

For CC(C)OC(=O)CCC/C=C\C[C@@H]1[C@@H](CC[C@@H](O)CCc2ccccc2)[C@H](O)C[C@@H]1O [Latanoprost] + CCOc1ccccc1-n1c(C(C)N2CCN(C(=O)COc3ccc(Cl)cc3)CC2)nc2ccccc2c1=O , what is its reported relative cell viability?
0.663

Name the reported relative cell viability value associated with the molecule CCCCCCCCCCCCCCCC(=O)NCCO [Palmidrol] + CCOc1ccccc1-n1c(C(C)N2CCN(C(=O)COc3ccc(Cl)cc3)CC2)nc2ccccc2c1=O
0.938

Look up relative cell viability: N[C@@H](Cc1c[nH]cn1)C(=O)O [histidine] + CCOc1ccccc1-n1c(C(C)N2CCN(C(=O)COc3ccc(Cl)cc3)CC2)nc2ccccc2c1=O
0.706

Using the record for CCCc1c(OCCCOc2ccc(OCC(=O)O)cc2)ccc(C(C)=O)c1O + CCOc1ccccc1-n1c(C(C)N2CCN(C(=O)COc3ccc(Cl)cc3)CC2)nc2ccccc2c1=O , report its relative cell viability.
0.833

Endpoint output: relative cell viability of C[C@H](CCOc1cccc(CC(=O)O)c1)N(Cc1cccc(C(F)(F)F)c1Cl)CC(c1ccccc1)c1ccccc1 [RGX-104 free Acid] + CCOc1ccccc1-n1c(C(C)N2CCN(C(=O)COc3ccc(Cl)cc3)CC2)nc2ccccc2c1=O [erastin] . Value?
0.488

---
I would be grateful if you could share the reported relative cell viability for O=C1C(SCCO)=C(SCCO)C(=O)c2ccccc21 + CCOc1ccccc1-n1c(C(C)N2CCN(C(=O)COc3ccc(Cl)cc3)CC2)nc2ccccc2c1=O .
0.851

I am curious: what relative cell viability value has been reported for COc1cc(N(C)C)cc(CN(C)CCc2ccc([N+](=O)[O-])cc2)c1O [CDC25 Phosphatase Inhibitor I] + CCOc1ccccc1-n1c(C(C)N2CCN(C(=O)COc3ccc(Cl)cc3)CC2)nc2ccccc2c1=O ?
0.781
